Data provenance: PubChem BioAssay AID1919000

The following compounds are listed with their measured viability, T/C values.
Tested on: 653999-131-R-J2-PDC complex spheroids, growth % test/control;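 note: spheroids exposed to agents for seven days; 100% = DMSO vehicle control viability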
METHOD_DESCRIPTION: Anticancer human tumor 653999-131-R-J2-PDC patient-derived lung adenocarcinoma cell line growth inhibition [AhR]
REPORTED_CONDITIONS: second compound 0.316 µM; first compound 0.316 µM; hits give low values

| COMPOUND | SYSTEM | viability, T/C |
| --- | --- | --- |
| O=C(c1cc(Cc2n[nH]c(=O)c3ccccc23)ccc1F)N1CCN(C(=O)C2CC2)CC1 + Cc1cncc(-c2nc(NCCc3c[nH]c4ccccc34)c3ncn(C(C)C)c3n2)c1 | 653999-131-R-J2-PDC complex spheroids, growth % test/control | 97.1% |
| COc1cccc2c1C(=O)c1c(O)c3c(c(O)c1C2=O)CC(O)(C(=O)CO)CC3OC1CC(N)C(O)C(C)O1 (stereo unspecified) + Cc1ccccc1N=Nc1ccc(NC(=O)c2ccnn2C)c(C)c1 | 653999-131-R-J2-PDC complex spheroids, growth % test/control | 29.3% |
| CC1COCCN1c1cc(C2(S(C)(=N)=O)CC2)nc(-c2ccnc3[nH]ccc23)n1 (stereo unspecified) + CC(CO)NC(=O)c1cc(-c2ccc(Cl)cc2)nn(-c2cnn(C)c2)c1=O | 653999-131-R-J2-PDC complex spheroids, growth % test/control | 103% |
| CC1COCCN1c1cc(C2(S(C)(=N)=O)CC2)nc(-c2ccnc3[nH]ccc23)n1 (stereo unspecified) + Cc1cncc(-c2nc(NCCc3c[nH]c4ccccc34)c3ncn(C(C)C)c3n2)c1 | 653999-131-R-J2-PDC complex spheroids, growth % test/control | 108% |
| Nc1ccn(C2OC(CO)C(O)C2(F)F)c(=O)n1 (stereo unspecified) + CC(CO)NC(=O)c1cc(-c2ccc(Cl)cc2)nn(-c2cnn(C)c2)c1=O | 653999-131-R-J2-PDC complex spheroids, growth % test/control | 62.2% |
| Nc1ncn(C2CC(O)C(CO)O2)c(=O)n1 (stereo unspecified) + Cc1ccccc1N=Nc1ccc(NC(=O)c2ccnn2C)c(C)c1 | 653999-131-R-J2-PDC complex spheroids, growth % test/control | 81.1% |
